Some compounds, each annotated with its measured inhibition.
# experimental.details: TLR3 IRF3 reporter activation blockers – cell-based, poly I:C stimulus, luciferase, 10K MLSCN set, primary screen (AID 602277)
# test.settings: HEK293-TLR3 RL24 IRF3 luciferase reporter, at 10 µM, stronger effect = higher value
recorded.metric: inhibition (%)

- Cc1cc(C)n2cc(CSc3nnnn3C)nc2n1: 19.7
- CCOC(=O)c1ccc2nc(C)c3c(c2c1)OC(C)C3 (centres undefined): 20.2
- COc1cc(/C=N/n2cnnc2)ccc1OCC(=O)N1CCOCC1: 19.7
- COC(=O)C1=C(C)Nc2nnnn2C1c1cccs1 (centres undefined): 20.5

----------
# experimental.details: inhibitors of TNFa-induced NFkB p65 translocation, primary screen, imaging, HUVEC, MLSMR starter and 10KST1 sets (AID 438);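 note: compound added about 3h40 before a 20 min TNFalpha stimulation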
# test.settings: HUVEC TNFa-induced p65 nuclear translocation; measured here: nuclei count (cytotoxicity indicator), at 2.08 µM
Please mark t if the recorded cell count is equal to or greater than 600, and f if it falls below.

* CCCSC1=C(C#N)C(c2cc(OC)ccc2OC)CC(=O)N1 (centres undefined) | t
* COc1cccc(CN2CCN(C(=O)c3ccco3)CC2)c1OC | f
* Cc1ccc(-n2ncc3c(=O)[nH]c(SCC(=O)N4CCN(c5ccccc5)CC4)nc32)cc1 | f
* C=CCn1c(SCC(=O)Nc2cccc(OC)c2)nnc1-c1cccnc1 | t
* O=C(Nc1ccc(Br)c2cccnc12)c1ccc(Cn2cc(Cl)cn2)o1 | f
* COc1ccc(Nc2ncnc3c2cnn3-c2ccccc2)cc1OC | t
* COCCCNC(=O)CCn1c(=O)c2ccccc2n(CC(=O)Nc2ccc(C)cc2C)c1=O | t
* CCN(CC(=O)NC1CCS(=O)(=O)C1)C(=O)C(c1ccccc1)c1ccccc1 (centres undefined) | t
* CCOC(=O)N1CCN(C(=O)CN(c2ccc(C)cc2)S(=O)(=O)c2c(C)noc2C)CC1 | f
* COc1cccc(C2C(C(N)=O)=C(C)Nc3nc(-c4ccccc4Cl)nn32)c1 (centres undefined) | t
* Cc1cc(C(=O)CSc2nc3ccccc3[nH]2)c(C)n1C | t
* Cc1ccc(SC(C)c2nc(-c3ccccc3)no2)cc1 (centres undefined) | f
* CCN(CC(=O)Nc1ccc(S(N)(=O)=O)cc1)S(=O)(=O)c1cc(C)ccc1OC | f
* Cc1cccc(Cn2c(SCC(=O)Nc3ccccc3)nc3c2c(=O)[nH]c(=O)n3C)c1 | f
* Cc1cccc(NS(=O)(=O)c2cc(C(=O)OCC(=O)Nc3cc(C)on3)ccc2C)c1 | f
* Cc1ccc(-n2c3c(cc(C(=O)NC4CCSC4=O)c2=O)C(=O)CC(C)(C)C3)cc1 (centres undefined) | f
* CCc1ccccc1OCCCCN1CCCC1 | f
* COc1cccc(NC(=O)NC2(C(F)(F)F)Oc3ccccc3O2)c1 | t
* CCC(C)(C)n1nnnc1C(c1ccc(OC)c(OC)c1)N1CCN(c2ccc(F)cc2)CC1 (centres undefined) | f
* Cc1ccc2nc(NCCCN3CCOCC3)c(C=NCCCN3CCOCC3)c(=O)n2c1 | t
* CC(C)C(C(=O)Nc1ccc2c(c1)OCCO2)N1C(=O)c2ccccc2C1=O (centres undefined) | f
* Cc1ccc(N=Cc2ccc[nH]2)c(O)c1 | f
* COC(=O)c1ccccc1S(=O)(=O)NC(=O)c1ccccc1 | f
* CC(NCc1ccco1)C(=O)N1CCc2ccccc2C1 (centres undefined) | t
* O=S1(=O)CC(N2CCCCC2)C(N2CCCCC2)C1 (centres undefined) | f
* CCOCCCNC(=O)C1CCN(S(=O)(=O)c2c(C)noc2/C=C\c2ccc(OC)cc2)CC1 | f

Numbers sourced from PubChem BioAssay.
